system-under-test: Retinal dehydrogenase 2 (Homo sapiens) (UniProt O94788)
assay-procedure: qHTS for Inhibitors of the Aldehyde Dehydrogenase Family (ALDH1A2) Confirmation screens (AID 2061314); also: nearly all actives have a fitted effect of over 65% in size
test-conditions: ALDH1A2 enzyme inhibition qHTS confirmation; series mostly up to 45.9 µM
Records with an inconclusive call do not appear. Active and inactive are the calls of the source. Calls follow the shape of the dose curve; as a rule, active = well fitted inhibition curve with a large enough effect; inconclusive = small, poorly fitted or top-dose-only effect; inactive = no such curve, though single readings can be large or run the other way.
The reply should be one of these categories: true (active), false (inactive)

Some solved entries appear below for comparison.
Hey, what did the test say about `CN(CC(=O)Nc1ccc(N2CCOCC2)cc1)Cc1c(O)ccc2ccccc12` ?
true

Same lookup for `CN[C@@H]1[C@H](O[C@H]2[C@H](O[C@@H]3[C@@H](O)[C@H](O)[C@@H](N=C(N)N)[C@H](O)[C@H]3N=C(N)N)O[C@@H](C)[C@]2(O)C=O)O[C@@H](CO)[C@H](O)[C@H]1O` , please.
false

Same lookup for `CCOC(=O)c1cnn(-c2ccc(NC(=O)C(Cl)=C(Cl)Cl)cc2)c1C(F)(F)F` , please.
true

Now take the following compound into account.
Hey, what did the test say about `NC(=O)C1CCN(c2nc(-c3ccc4occc(=O)c4c3)cs2)CC1` ?
false

----------
system-under-test: Cellular tumor antigen p53 (Homo sapiens) (UniProt P04637)
Sequence (P04637 whole entry, looked up): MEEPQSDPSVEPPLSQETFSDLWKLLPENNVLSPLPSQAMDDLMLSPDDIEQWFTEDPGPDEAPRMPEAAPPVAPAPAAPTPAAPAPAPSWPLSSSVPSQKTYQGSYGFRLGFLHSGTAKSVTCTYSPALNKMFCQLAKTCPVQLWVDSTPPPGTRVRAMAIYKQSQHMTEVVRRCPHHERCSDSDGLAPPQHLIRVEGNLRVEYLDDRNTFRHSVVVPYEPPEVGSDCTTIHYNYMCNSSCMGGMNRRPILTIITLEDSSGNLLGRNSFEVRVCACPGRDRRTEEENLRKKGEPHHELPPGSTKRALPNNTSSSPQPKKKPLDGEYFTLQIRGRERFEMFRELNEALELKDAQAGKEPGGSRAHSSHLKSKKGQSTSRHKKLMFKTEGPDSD
assay-procedure: Primary qHTS for small molecule compounds that upregulate eGFP-tagged delta133p53alpha (in N-terminal) cells. (AID 2060322);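 also: cells pre-induced with doxycycline then dosed without doxycycline; 0% = DMSO vehicle and 100% = reference activator; nearly all actives have a fitted effect of over 75% in size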
test-conditions: NCI-H358 eGFP-delta133p53alpha fluorescence, 24 h; stronger effect = higher value
Inconclusive results are not listed.
measured-parameter: activation (%)
Answers are plain numbers, in %.

Please provide the recorded activation for `COc1ccc(/C=C/C(=O)O[C@@H]2[C@@H](OC(C)=O)[C@@H](OC(C)=O)[C@H](O[C@H]3[C@@H]4C=CO[C@@H](O[C@@H]5O[C@H](CO)[C@@H](O)[C@H](O)[C@H]5O)[C@@H]4[C@@]4(CO)O[C@@H]34)O[C@H]2C)cc1` , tested on Cellular tumor antigen p53 (Homo sapiens) (UniProt P04637).
5.34

List the reported activation of each compound below.
1. CC(C)(C)c1[nH]cnc1C=c1[nH]c(=O)c(=Cc2ccccc2)[nH]c1=O
2. C[C@@H]1CC[C@]2(C(=O)O[C@@H]3O[C@H](CO)[C@@H](O)[C@H](O)[C@H]3O)CC[C@]3(C)C(=CCC4[C@@]5(C)C[C@@H](O)[C@H](O)[C@@](C)(C(=O)O[C@H]6[C@H](O)C[C@@]7(C)C(CC[C@]8(C)C7CC=C7[C@H]9[C@](C(=O)O[C@@H]%10O[C@H](CO)[C@@H](O)[C@H](O)[C@H]%10O)(CC[C@@H](C)[C@@]9(C)O)CC[C@]78C)[C@@]6(CO)C(=O)O)C5CC[C@]43C)[C@@H]2[C@]1(C)O (some centres undefined)
3. C=C(C)[C@@H]1CC[C@]2(C(=O)O)CC[C@]3(C(=O)O)[C@H](CCC4[C@@]5(C)CCC(=O)C(C)(C)C5CC[C@]43C)C12 (some centres undefined)

[-1.26, 0, 33.9]

----------
assay-procedure: BET inhibitor-based combinations targeting novel dependencies in MECOM-rearranged (r) AML: SET-2 cell line (AID 2202231); also: potency is read from the fitted curve at half-maximal effect; nearly all actives have a fitted effect of over 35% in size
test-conditions: SET-2 AML cells viability, CellTiter-Glo luminescence, 48 h
Results filed as inconclusive are left out. Calls of active or inactive are those of the source. The call rests on the fitted dose curve; in most records, active means well fitted inhibition curve with a large enough effect; inconclusive means small, poorly fitted or top-dose-only effect; inactive means no such curve, though single readings can be large or run the other way.
measured-parameter: Potency

Please review the entries below; each comes with its answer.
Param item = `c1nc2nc(Nc3ccc(N4CCOCC4)cc3)nc(NC3CCCCC3)c2[nH]1` ; retrieve measured Potency.
4.17 µM (active)

Same lookup for `NC(=O)c1ccccc1Nc1ccnc(Nc2cccc(O)c2)n1` , please.
5.9 µM (active)

Same lookup for `COc1c(C)c2c(c(O)c1C/C=C(\C)CCC(=O)O)C(=O)OC2` , please.
1.18 µM (active)

Same lookup for `CCOC(=O)N1CCN(/[N+]([O-])=N/Oc2ccc([N+](=O)[O-])cc2[N+](=O)[O-])CC1` , please.
4.68 µM (active)

Same lookup for `c1cc(Nc2cc(C3CC3)[nH]n2)nc(Nc2ccc3nc[nH]c3c2)n1` , please.
0.662 µM (active)

Same lookup for `CCOc1cc2c(c(F)c1OCC)C(=N)N(CC(=O)c1cc(N3CCOCC3)c(OC)c(C(C)(C)C)c1)C2` , please.
16.6 µM (active)

Same lookup for `COc1cc(OC2CCN(C)CC2)ccc1Nc1ncc2c(n1)n(C1CCCC1)c(=O)n2C` , please.
4.68 µM (active)

Same lookup for `Cn1cc(-c2ccc(S(=O)(=O)n3ccc(/C=C/C(=O)Nc4ccccc4N)c3)cc2)cn1` , please.
1.86 µM (active)

List the reported Potency of each compound below.
1. Oc1ccc(-c2ccc(-c3cc(Nc4cccc(CNC5CC5)c4)n[nH]3)cc2)c(O)c1
2. CCc1cc(-c2n[nH]c(C)c2-c2ccc3c(c2)OCCO3)c(O)cc1O

1: 7.42 µM (active); 2: 14.8 µM (active)

----------
system-under-test: Retinaldehyde dehydrogenase 3 (Homo sapiens)
assay-procedure: qHTS for Inhibitors of the Aldehyde Dehydrogenase Family (ALDH1A3) Validation screen (AID 2061312); also: nearly all actives have a fitted effect of over 45% in size
test-conditions: ALDH1A3 enzyme inhibition qHTS validation, fluorescence; series mostly up to 84.7 µM
Records with an inconclusive call do not appear. Activity calls are given as the source filed them. Calls follow the shape of the dose curve; as a rule, active = well fitted inhibition curve with a large enough effect; inconclusive = small, poorly fitted or top-dose-only effect; inactive = no such curve, though single readings can be large or run the other way.
The reply should be one of these categories: YES (active), NO (inactive)

Hey, what did the test say about `CNC(=O)[C@H]1O[C@@H](n2cnc3c(NCc4cccc(I)c4)ncnc32)[C@H](O)[C@@H]1O` ?
NO

Same lookup for `N[C@@H](COP(=O)(O)O)C(=O)O` , please.
NO

Same lookup for `C=CC(=O)N1CCN(C(=O)CNc2cc(I)c(Cl)cc2O)CC1` , please.
YES

Same lookup for `CNC(=O)c1ccc2c(C(=Nc3cccc(CN(C)C)c3)c3ccccc3)c(O)[nH]c2c1` , please.
NO

Now take the following compound into account.
Hey, what did the test say about `O=C1CC2(CCCC2)CC(=O)N1CCCCN1CCN(c2ncccn2)CC1` ?
NO

----------
system-under-test: Cellular tumor antigen p53 (Homo sapiens) (UniProt P04637)
assay-procedure: Primary qHTS for small molecule compounds that upregulate eGFP-tagged delta133p53alpha (in N-terminal) cells. (AID 2060322);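 also: cells pre-induced with doxycycline then dosed without doxycycline; 0% = DMSO vehicle and 100% = reference activator; nearly all actives have a fitted effect of over 75% in size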
test-conditions: NCI-H358 eGFP-delta133p53alpha fluorescence, 24 h; stronger effect = higher value
Results filed as inconclusive are left out. Calls of active or inactive are those of the source. The call rests on the fitted dose curve; in most records, active means well fitted activation curve with a large enough effect; inconclusive means small, poorly fitted or top-dose-only effect; inactive means no such curve, though single readings can be large or run the other way.
measured-parameter: activation

Param item = CC1=C(C)C(=O)OC(C(C)C2C(O)CC3C4C5OC5C5(O)CC(OC6OC(CO)C(OC7OC(C)C(O)C(O)C7O)C(O)C6O)CC(O)C5(C)C4CCC32C)C1 (stereo not given) ; retrieve measured activation.
-6.87% (inactive)

Same lookup for CC12CCC(OC3OC(CO)C(O)C(OC4OC(CO)C(O)C(O)C4O)C3O)CC1=CCC1C2CCC2(C)/C(=C3/COC(=O)C3)CCC12O (stereo not given) , please.
-13% (inactive)

Same lookup for COc1cc(Nc2nc3c(s2)CCCC3c2ccccc2)ccc1-n1cnc(C)c1 (stereo not given) , please.
-18.6% (inactive)

Same lookup for `O=P(O)(O)C(O)(Cn1ccnc1)P(=O)(O)O` , please.
-20.1% (inactive)

Would you kindly look at the next entry?
Param item = `Cc1ccc(C)c(OCCn2cc(C(=O)O)c3ccccc32)c1` ; retrieve measured activation.
7.16% (inactive)

----------
Give measured activation for each item. Keep answers brief.
system-under-test: Cellular tumor antigen p53 (Homo sapiens)
assay-procedure: Primary qHTS for small molecule compounds that upregulate eGFP-tagged delta133p53alpha (in N-terminal) cells. (AID 2060322);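 also: cells pre-induced with doxycycline then dosed without doxycycline; 0% = DMSO vehicle and 100% = reference activator; nearly all actives have a fitted effect of over 75% in size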
test-conditions: NCI-H358 eGFP-delta133p53alpha fluorescence, 24 h; stronger effect = higher value
Results filed as inconclusive are left out.
Answers are plain numbers, in %.

Please provide the recorded activation for COC(=O)C(C)(N)Cc1ccc(O)cc1 (stereo not drawn) , tested on Cellular tumor antigen p53 (Homo sapiens).
-5.7

Same lookup for CC(C)=CCCC1(C)C=Cc2c(c(C)cc3c2[nH]c2ccccc23)O1 (stereo not drawn) , please.
2.29

Same lookup for `COc1ccc2cc3[n+](cc2c1OC)CCc1cc2c(cc1-3)OCO2` , please.
-7.97

Same lookup for `NS(=O)(=O)c1cc2c(cc1Cl)CN(C1CCCCC1)C2=O` , please.
20.9

Same lookup for `CO[C@@H](C)Cn1c(=O)n(C)c2cnc3ccc(-c4cncc(C(C)(C)O)c4)cc3c21` , please.
-10.7

List the reported activation of each compound below.
1. C[C@H](O)C(O)(C(=O)OCc1ccccc1NC(=O)CCC(N)C(=O)O)[C@H](C)O (stereo partly drawn)
2. COCc1c(O)c(C(=O)O)c(C)c2c1OC(=O)c1c(C)cc(O)c(CO)c1O2
3. CCCNS(=O)(=O)Nc1ncnc(OCCOc2ncc(Br)cn2)c1-c1ccc(Br)cc1
4. C=C(C)C(C)C1OC23CC4(CO2)C(CCC2C5(C)CCC(OC6OCC(O)C(OC7OC(CO)C(O)C(OC8OCC(O)C(O)C8O)C7O)C6OC6OC(CO)C(O)C6O)C(C)(C)C5CCC24C)C3C(C)(O)C1OC(C)=O (stereo not drawn)
5. CCOc1ccc(NC(C)=O)cc1
6. COC1OC(OC)C(O)(CCC2(C)C(C)CCC3(C)C2CC(O)C(O)C32CO2)C1O (stereo not drawn)
7. O=C(O)c1ccccc1Nc1cc(Cl)ccc1C(=O)O

[-24.4, 0.893, -5.9, -19.8, 7.53, 0.763, -31]

List the reported activation of each compound below.
1. COC(=O)C1=COC(O[C@@H]2O[C@H](COC(=O)/C=C/c3ccc(O)cc3)[C@@H](O)[C@H](O)[C@H]2O)C2C(CO)=CCC12 (stereo partly drawn)
2. C[C@@]12C[C@]3(O)O[C@H](O1)[C@]1(COC(=O)c4ccccc4)[C@H]3C[C@@]12O[C@@H]1O[C@H](CO)[C@@H](O)[C@H](O)[C@H]1O
3. Cc1cc(OCCCS(C)(=O)=O)cc(C)c1-c1cccc(COc2ccc3c(c2)OCC3CC(=O)O)c1 (stereo not drawn)
4. C=C(C(=O)O)C1CCC2(C)CCC(O)C(C)(O)C2C1 (stereo not drawn)
5. COc1cc(O[C@@H]2O[C@H](CO[C@H]3OC[C@](O)(CO)[C@H]3O)[C@@H](O)[C@H](O)[C@H]2O)cc(OC)c1O
6. COCC(c1ccc(C(F)(F)F)cc1)N1CCN(C2(C)CCN(C(=O)c3c(C)ncnc3C)CC2)CC1C (stereo not drawn)

[-23.7, 25, 6.68, 8.04, -16.8, 12.4]

Where these numbers come from: PubChem BioAssay (NCATS)
